target or system: UniProt Q96D53
Sequence (Q96D53 whole entry, looked up): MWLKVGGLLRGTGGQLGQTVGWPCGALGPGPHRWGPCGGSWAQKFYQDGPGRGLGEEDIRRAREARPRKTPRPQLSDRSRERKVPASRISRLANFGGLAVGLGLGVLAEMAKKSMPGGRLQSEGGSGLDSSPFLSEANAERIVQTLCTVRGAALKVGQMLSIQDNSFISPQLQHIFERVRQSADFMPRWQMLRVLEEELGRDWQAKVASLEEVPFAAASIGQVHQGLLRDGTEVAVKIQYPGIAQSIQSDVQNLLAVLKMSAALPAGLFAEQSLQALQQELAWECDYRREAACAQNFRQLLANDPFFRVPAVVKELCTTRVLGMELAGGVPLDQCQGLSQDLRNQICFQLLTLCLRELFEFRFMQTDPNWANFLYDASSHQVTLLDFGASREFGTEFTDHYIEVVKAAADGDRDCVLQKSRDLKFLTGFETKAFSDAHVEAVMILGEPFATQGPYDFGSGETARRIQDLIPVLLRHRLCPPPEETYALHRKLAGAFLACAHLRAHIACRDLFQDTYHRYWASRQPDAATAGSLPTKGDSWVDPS
experiment: KINOMEscan competition binding
particulars: compound 10.0 µM
Property: kinase still bound, per cent of control; scope: individual compounds
State the answer as a number, implicitly in %.

Use the examples below as a reference point.
smiles_entry=CS(=O)(=O)N1CCN(Cc2cc3nc(-c4cccc5[nH]ncc45)nc(N4CCOCC4)c3s2)CC1 experimental_result=100
smiles_entry=COc1cc(C(=O)N2CCC(N3CCN(C)CC3)CC2)ccc1Nc1ncc2c(n1)N(C)c1ccccc1C(=O)N2C experimental_result=94

Please find the next compound below.
Inquiry: Look at this compound and give its reported kinase still bound, per cent of control. CN(C)C/C=C/C(=O)Nc1ccc(C(=O)Nc2cccc(Nc3nccc(-c4cccnc4)n3)c2)cc1
Reply text: 98

====

target or system: SRC (human)
experiment: KINOMEscan competition binding
particulars: compound 10.0 µM
In this section, each of the compounds is paired with its reported kinase still bound, per cent of control.
Give the value in % but do not write % after it.

Sample records with kinase still bound, per cent of control:
smiles_entry=O=c1cc(N2CCOCC2)oc2c(-c3cccc4c3sc3ccccc34)cccc12 quantity_unit=% experimental_result=90
smiles_entry=COc1cc(N2CCN(C)CC2)ccc1Nc1ncc2c(n1)N(C)c1ccccc1C(=O)N2C quantity_unit=% experimental_result=100
smiles_entry=COc1cc2ncn(-c3cc(OCc4ccccc4C(F)(F)F)c(C(N)=O)s3)c2cc1OC quantity_unit=% experimental_result=64

Inquiry: Please state recorded kinase still bound, per cent of control (tested on SRC (human)) of COc1cc2ncnc(-n3nc(-c4ccccn4)nc3N)c2cc1OC
Reply text: 6.7

Inquiry: Repeat with CCN(CC)CCCCNc1ncc2cc(-c3cc(OC)cc(OC)c3)c(NC(=O)NC(C)(C)C)nc2n1
Reply text: 100

Inquiry: Moving on to the next compound: COc1cc(C(=O)N2CCC(N3CCN(C)CC3)CC2)ccc1Nc1ncc2c(n1)N(C)c1ccccc1C(=O)N2C
Reply text: 100

====

target or system: UniProtKB Q96L34
Sequence (Q96L34 whole entry, looked up): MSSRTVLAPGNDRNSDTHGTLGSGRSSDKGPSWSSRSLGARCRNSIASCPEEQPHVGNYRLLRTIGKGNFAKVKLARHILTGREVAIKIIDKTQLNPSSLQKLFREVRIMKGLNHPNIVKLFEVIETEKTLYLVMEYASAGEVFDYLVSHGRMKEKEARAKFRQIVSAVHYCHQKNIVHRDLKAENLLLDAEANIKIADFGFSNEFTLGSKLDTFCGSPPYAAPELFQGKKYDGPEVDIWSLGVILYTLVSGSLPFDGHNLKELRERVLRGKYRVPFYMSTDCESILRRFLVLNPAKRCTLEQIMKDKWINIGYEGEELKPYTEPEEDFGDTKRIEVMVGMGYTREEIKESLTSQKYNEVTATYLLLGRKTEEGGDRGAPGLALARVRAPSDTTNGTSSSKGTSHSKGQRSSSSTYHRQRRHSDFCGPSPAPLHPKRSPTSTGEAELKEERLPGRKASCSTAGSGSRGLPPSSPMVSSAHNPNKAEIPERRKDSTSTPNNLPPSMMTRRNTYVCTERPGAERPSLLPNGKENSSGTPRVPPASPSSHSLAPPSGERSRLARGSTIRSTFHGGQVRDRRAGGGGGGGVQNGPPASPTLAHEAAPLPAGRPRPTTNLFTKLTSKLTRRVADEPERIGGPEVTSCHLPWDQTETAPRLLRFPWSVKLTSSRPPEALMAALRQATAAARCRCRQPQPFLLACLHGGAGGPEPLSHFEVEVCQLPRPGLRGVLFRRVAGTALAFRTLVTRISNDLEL
experiment: KINOMEscan competition binding
particulars: compound 10.0 µM
The entries below are paired with their reported kinase still bound, per cent of control.
Quick reminder: number only, in %, skip the unit.

Below, 3 molecules whose answers are already recorded.
smiles_entry=COc1ccc(N(C(=O)Oc2c(C)cccc2C)c2ccnc(Nc3ccc(N4CCN(C)CC4)cc3)n2)c(OC)c1 target_or_system="UniProtKB Q96L34" quantity_unit=% experimental_result=49
smiles_entry=C[C@@H](Oc1cc(-c2cnn(C3CCNCC3)c2)cnc1N)c1c(Cl)ccc(F)c1Cl target_or_system="UniProtKB Q96L34" quantity_unit=% experimental_result=48
smiles_entry=NC(=O)Nc1cc(-c2cccc(F)c2)sc1C(=O)N[C@@H]1CCCNC1 target_or_system="UniProtKB Q96L34" quantity_unit=% experimental_result=2.2

Inquiry: // kinase still bound, per cent of control lookup, key: CCN(CC)CCCCNc1ncc2c(n1)N(C)C(=O)N(c1c(Cl)c(OC)cc(OC)c1Cl)C2
Reply text: 100

Inquiry: Entry COCC(=O)NC/C=C/c1ccc2ncnc(Nc3ccc(Oc4ccc(C)nc4)c(C)c3)c2c1 please
Reply text: 100

====

target or system: LIMK2 (human) (UniProt P53671)
Sequence (P53671 whole entry, looked up): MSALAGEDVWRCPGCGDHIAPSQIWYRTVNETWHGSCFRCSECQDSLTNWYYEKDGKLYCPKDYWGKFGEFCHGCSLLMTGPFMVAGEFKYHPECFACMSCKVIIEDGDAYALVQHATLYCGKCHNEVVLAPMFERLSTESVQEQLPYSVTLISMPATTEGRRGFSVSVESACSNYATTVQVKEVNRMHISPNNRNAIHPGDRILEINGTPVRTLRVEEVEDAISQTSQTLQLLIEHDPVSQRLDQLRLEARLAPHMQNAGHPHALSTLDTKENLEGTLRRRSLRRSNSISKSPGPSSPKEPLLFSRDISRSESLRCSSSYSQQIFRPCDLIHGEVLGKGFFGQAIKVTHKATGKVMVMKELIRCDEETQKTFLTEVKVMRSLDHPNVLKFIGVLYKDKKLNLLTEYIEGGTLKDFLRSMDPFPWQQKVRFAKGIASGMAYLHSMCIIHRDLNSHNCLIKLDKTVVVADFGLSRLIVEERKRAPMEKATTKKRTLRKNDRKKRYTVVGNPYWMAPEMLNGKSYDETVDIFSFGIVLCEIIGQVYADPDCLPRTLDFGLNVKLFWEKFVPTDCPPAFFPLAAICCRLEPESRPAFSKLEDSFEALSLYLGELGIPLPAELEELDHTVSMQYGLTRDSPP
experiment: KINOMEscan competition binding
particulars: compound 10.0 µM
The molecules listed here are annotated with their kinase still bound, per cent of control.
Give just the numeric value; % need not be written.

smiles_entry=NC(=O)Nc1cc(-c2cccc(F)c2)sc1C(=O)N[C@@H]1CCCNC1 observable="kinase still bound, per cent of control" quantity_unit=% experimental_result=88

Inquiry: kinase still bound, per cent of control lookup needed for CCN1CCN(C(=O)Cc2ccc(Nc3ncc(F)c(Nc4ccc(C(=O)Nc5ccccc5Cl)cc4)n3)cc2)CC1 , thanks.
Reply text: 30

Inquiry: What would you report for O=C(Nc1cccc(Nc2ncc(Br)c(NCCc3cnc[nH]3)n2)c1)N1CCCC1 ?
Reply text: 59

Inquiry: Okay, and CCN(CC)CCCCNc1ncc2cc(-c3cc(OC)cc(OC)c3)c(NC(=O)NC(C)(C)C)nc2n1 ?
Reply text: 100

Inquiry: Same read-out for N#CCNC(=O)c1ccc(-c2ccnc(Nc3ccc(N4CCOCC4)cc3)n2)cc1 ?
Reply text: 68

Inquiry: Follow-up entry: CS(=O)(=O)N1CCN(Cc2cc3nc(-c4cccc5[nH]ncc45)nc(N4CCOCC4)c3s2)CC1
Reply text: 100

Inquiry: Next record, please: C=CC(=O)Nc1cc(-n2c(=O)ccc3cnc4ccc(-c5cn[nH]c5)cc4c32)ccc1C
Reply text: 100

Inquiry: One more molecule: COc1cc(N2CCN(C)CC2)ccc1Nc1ncc2c(n1)N(C)c1ccccc1C(=O)N2C
Reply text: 100

Inquiry: // same read-out, input: COc1cc(C(=O)N2CCC(N3CCN(C)CC3)CC2)ccc1Nc1ncc2c(n1)N(C)c1ccccc1C(=O)N2C
Reply text: 100
